Test system: HepG2
Assay Procedure: Potentiation of gamma-irradiation-induced cytotoxicity against Homo sapiens (human) HepG2 cells at 12.5 uM relative to control
Assay type: functional
Consider the cut-off 80%. If the recorded Activity is strictly smaller, the label is 1.0; if not, the label is 0.0.

smiles_code=Cc1cc(C)nc(NS(=O)(=O)c2ccc(N/C=C3/C(=N)N(c4ccccc4)N=C3N)cc2)n1 assigned_label=0.0
smiles_code=N=C1NN=C(N)/C1=C\Nc1ccc(S(=O)(=O)Nc2cnc3ccccc3n2)cc1 assigned_label=1.0

INPUT: Consider Cc1cc(C)nc(NS(=O)(=O)c2ccc(-n3cc(C#N)c(=O)n(-c4ccccc4)c3=S)cc2)n1 . Does its Activity lie strictly below 80%?
OUTPUT: 1.0

---

Give Activity for every item shown.
System: HepG2
Assay Procedure: Potentiation of gamma-irradiation-induced cytotoxicity against Homo sapiens (human) HepG2 cells at 25 uM relative to control
Assay type: functional
Please answer in the form of a number followed by its unit of measurement.

Before answering, review these 4 worked examples.
smiles_code=NC1=NN(c2ccccc2)C(=O)/C1=C/Nc1ccc(S(=O)(=O)Nc2cnc3ccccc3n2)cc1 target_of_assay=HepG2 result=93.5%
smiles_code=NC1=NN(c2ccccc2)C(=O)/C1=C/Nc1ccc(S(=O)(=O)Nc2ccccn2)cc1 target_of_assay=HepG2 result=76.7%
smiles_code=N=C1NN=C(N)/C1=C\Nc1ccc(S(=O)(=O)Nc2cnc3ccccc3n2)cc1 target_of_assay=HepG2 result=80.6%
smiles_code=Cc1cc(C)nc(NS(=O)(=O)c2ccc(N/C=C3/C(=N)N(c4ccccc4)N=C3N)cc2)n1 target_of_assay=HepG2 result=92.9%

Would you kindly look at the next entry?
INPUT: Give the reported Activity for Cc1cc(C)nc(NS(=O)(=O)c2ccc(-n3cc(C#N)c(=O)n(-c4ccccc4)c3=S)cc2)n1 (system: HepG2).
OUTPUT: 77.5%
